Experiment: Microsomal stability assay
Type: in vitro ADME
Conditions: both sexes, human, liver microsomes, 1 µmol/L, 60 min incubation, read-out: Half-life
# half-life at 1 µmol/L per record follows

| Compound | Measured endpoint | Result |
| --- | --- | --- |
| NS(=O)(=O)c1ccc(Nc2ncc3cc4n(c3n2)C2(CCCCC2)C(=O)NN4)cc1 [INX-315] | half-life at 1 µmol/L | > 60 min |
| CN1CCN(c2ccc(Nc3ncc4cc5n(c4n3)C3(CCCCC3)CNC5=O)nc2)CC1 [Trilaciclib, reference compound] | half-life at 1 µmol/L | > 60 min |
| NS(=O)(=O)c1ccc(Nc2ncc3cc4n(c3n2)C2(CCCCC2)CN=C4)cc1 [Compound B] | half-life at 1 µmol/L | < 10 min |

Data request: Reported half-life at 1 µmol/L, compound C[C@@H]1NC(=O)C2(CCCCC2)n2c1cc1cnc(Nc3ccc(S(N)(=O)=O)cc3)nc12 [Compound C] : ____
Data returned: 15.3 min

###

Target: CDK4/cyclin D1 (Homo sapiens)
Construct: purchased ThermoFisher PV4400
Sequence (P11802 whole entry): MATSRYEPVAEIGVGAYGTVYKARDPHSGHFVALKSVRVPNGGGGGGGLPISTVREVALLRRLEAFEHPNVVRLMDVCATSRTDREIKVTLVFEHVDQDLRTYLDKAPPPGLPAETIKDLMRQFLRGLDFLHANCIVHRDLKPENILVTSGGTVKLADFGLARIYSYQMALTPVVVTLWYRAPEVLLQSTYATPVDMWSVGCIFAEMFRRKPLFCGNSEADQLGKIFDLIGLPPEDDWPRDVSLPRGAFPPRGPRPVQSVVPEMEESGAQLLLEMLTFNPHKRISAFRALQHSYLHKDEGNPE
Sequence (P24385 whole entry partner): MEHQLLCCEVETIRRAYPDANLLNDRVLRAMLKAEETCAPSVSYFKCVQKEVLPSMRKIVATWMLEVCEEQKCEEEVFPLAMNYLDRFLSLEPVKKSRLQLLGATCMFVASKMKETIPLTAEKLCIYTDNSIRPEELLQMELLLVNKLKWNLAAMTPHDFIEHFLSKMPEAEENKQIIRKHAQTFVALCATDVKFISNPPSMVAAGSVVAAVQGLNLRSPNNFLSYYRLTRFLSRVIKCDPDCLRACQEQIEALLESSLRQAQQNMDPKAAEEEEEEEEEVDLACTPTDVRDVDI
Test: Nanosyn biochemical assay
Conditions: Supp Fig S1C, value (SEM), read-out: IC50 (nM) CDK4/cyclin D1
Measured endpoint: IC50 (nM)
# value in nM; strip the unit string

Data request: Would you kindly share the measured IC50 for "NS(=O)(=O)c1ccc(Nc2ncc3cc4n(c3n2)C2(CCCCC2)C(=O)NN4)cc1" ?
Data returned: 126

###

Molecular target: T1, CDK9/cyclin T1 (Homo sapiens, UniProt P50750)
T1 construct: purchased Carna 04-110
T1 sequence (P50750 whole entry): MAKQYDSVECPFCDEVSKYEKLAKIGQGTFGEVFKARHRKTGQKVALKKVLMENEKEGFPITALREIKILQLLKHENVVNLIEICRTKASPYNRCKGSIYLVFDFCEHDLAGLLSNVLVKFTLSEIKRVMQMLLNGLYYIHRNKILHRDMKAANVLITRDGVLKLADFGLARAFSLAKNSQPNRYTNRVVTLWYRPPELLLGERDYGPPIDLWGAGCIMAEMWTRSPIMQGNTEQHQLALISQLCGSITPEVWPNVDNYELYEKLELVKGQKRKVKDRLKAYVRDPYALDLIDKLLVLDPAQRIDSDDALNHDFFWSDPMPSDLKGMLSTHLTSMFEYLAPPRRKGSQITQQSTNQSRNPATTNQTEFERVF
T1 sequence (O60563 whole entry partner): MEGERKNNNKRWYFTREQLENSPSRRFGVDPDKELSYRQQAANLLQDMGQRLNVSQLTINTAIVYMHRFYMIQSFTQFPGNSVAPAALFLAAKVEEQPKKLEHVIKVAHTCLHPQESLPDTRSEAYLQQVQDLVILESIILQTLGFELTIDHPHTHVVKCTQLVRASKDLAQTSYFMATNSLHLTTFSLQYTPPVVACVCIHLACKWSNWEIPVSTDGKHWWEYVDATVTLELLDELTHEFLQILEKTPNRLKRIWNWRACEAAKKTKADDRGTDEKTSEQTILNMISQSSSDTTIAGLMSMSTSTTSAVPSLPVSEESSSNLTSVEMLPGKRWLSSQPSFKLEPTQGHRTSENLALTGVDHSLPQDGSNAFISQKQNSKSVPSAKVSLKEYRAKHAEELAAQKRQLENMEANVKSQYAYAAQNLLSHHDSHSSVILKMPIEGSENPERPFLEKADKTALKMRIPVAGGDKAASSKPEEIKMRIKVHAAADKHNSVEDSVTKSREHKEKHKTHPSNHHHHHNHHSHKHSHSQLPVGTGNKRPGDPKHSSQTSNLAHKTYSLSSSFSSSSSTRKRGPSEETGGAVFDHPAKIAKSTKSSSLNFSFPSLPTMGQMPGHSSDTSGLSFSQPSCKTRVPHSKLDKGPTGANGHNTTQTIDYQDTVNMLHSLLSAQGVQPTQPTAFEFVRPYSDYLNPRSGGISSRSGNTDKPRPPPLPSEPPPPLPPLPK
Test: Nanosyn biochemical assay
Details: Supp Fig S1C, value (SEM), read-out: IC50 (nM) CDK9/cyclin T1
Measured endpoint: IC50 (nM)
The figure you give is taken to be in nM; do not add the unit.

Data request: // fetch T1, CDK9/cyclin T1 (Homo sapiens, UniProt P50750) IC50 for COCc1cc(C(=O)Nc2cc([C@H]3CC[C@@H](OC(=O)NC(C)C)C3)[nH]n2)n(C)n1 [PF-07104091, reference compound]
Data returned: 363
